Test system: HOP-92 NSCLC
Test: NCI tumour cell line growth inhibition, 48 h
Below, each entry is listed with its recorded log10(TGI).
Hello, just confirming the data are log10 of TGI with units of µM.

- molecule: "CC(C)Oc1ccc(C(=O)N[C@H](CNC(=O)CN(C)C)Cc2ccc(-c3cn4cccc([C@H](C)O)c4n3)cc2)cc1Cl"
  val: 1.39
- molecule: "CC(=O)Nc1sc2c(c1-c1nc3ccccc3s1)CNC2"
  val: 1.28
- molecule: "O=C(Nc1ccc(Br)cc1F)c1cc(Br)ccc1O"
  val: -0.19

Prompt line: Retrieve log10(TGI) measured for COc1cc(NC(N)=NCCC(C)(C)c2ccc(C(F)(F)F)cc2)ncc1C#N and print it.
Response line: 0.44

Prompt line: Retrieve log10(TGI) measured for COc1ccc(Cn2c(Br)c3c(c2-c2cc(OC)c(OC)c(OC)c2)CCc2sc(NC(C)=O)nc2-3)cc1 and print it.
Response line: 0.98

Prompt line: Retrieve log10(TGI) measured for O=S(=O)(NCCCNc1cc(-c2cn(-c3ccccc3)nc2-c2cccc(O)c2)ccn1)c1ccc(Cl)cc1 and print it.
Response line: 0.68

Prompt line: Retrieve log10(TGI) measured for Cc1cc(-c2ccccc2)cc2[n+]1CC=C2 and print it.
Response line: 1.98

Prompt line: Retrieve log10(TGI) measured for CC1Cc2cc(O)ccc2C2[C@@H]1C1CC[C@H](O)[C@@]1(C)C[C@@H]2O[N+](=O)[O-] (some centres undefined) and print it.
Response line: 1.99

----------
Below, each entry is listed with its recorded TGI.
Test system: NCI/ADR-RES ovarian
Test: NCI tumour cell line growth inhibition, 48 h
Give a bare numeral; the unit µM is implied.

Solved entries (count: 6):
- compound: "O=C1c2cccnc2C(=O)c2c1c(C(=O)OCCN1CCOCC1)c1ccccn21"
  val: 13
- compound: "S=C(N/N=C(/c1ccccc1)c1ccccn1)Nc1cccc(Cl)c1"
  val: 4.38
- compound: "N#CC(c1cc(Cl)ncn1)c1nc2ccccc2s1 (stereo not drawn)"
  val: 15.2
- compound: "O=S(=O)(NCCCNc1cc(-c2cn(-c3ccccc3)nc2-c2cccc(O)c2)ccn1)c1ccc(Cl)cc1"
  val: 5.3
- compound: "CC(C)[C@@H]1CC[C@@H]2[C@@H]1[C@H](OC(=O)/C=C/c1ccccc1)[C@]1(C(C)C)C[C@@H](OC(=O)CO)[C@@]2(C)O1"
  val: 5
- compound: "COc1ccc(CNc2nc(NCc3ccc(OC)cc3)c3n[nH]c(C(C)C)c3n2)cc1"
  val: 15.9

Prompt line: Give the observed TGI of Cn1c(=S)sc2nc3ccccc3n2c1=S for NCI/ADR-RES ovarian.
Response line: 44.8

----------
Tested on: HT29 colon
Assay: NCI tumour cell line growth inhibition, 48 h
measure: TGI

Solved entries (count: 2):
- compound: "Cc1cc(-c2nc3cc(F)c(F)cc3s2)ccc1N"
  TGI: "> 100 µM"
- compound: "COc1cc(/C=C(\\C#N)c2ccccn2)cc(Br)c1O"
  TGI: "> 100 µM"

Prompt line: Retrieve TGI measured for NC[C@@](O)(c1ccc(Cl)cc1)c1ccc(-c2cn[nH]c2)cc1 and print it.
Response line: 7.26 µM

Prompt line: Retrieve TGI measured for CC(=O)OCc1cn(S(=O)(=O)c2ccc(C)cc2)cn1 and print it.
Response line: > 100 µM

Prompt line: Retrieve TGI measured for CC(Oc1ccc2cc(C(=O)c3ccccc3)c(=O)oc2c1)C(=O)O (stereo unspecified) and print it.
Response line: > 100 µM
